- ASSAY_OVERVIEW: in vitro
- TEST_PARAMETERS: cynomolgus monkey, plasma
MEASURED_PROPERTY: fraction unbound

Look up fraction unbound: Cc1c(F)c(N)cc(C(=O)Nc2cc(-n3cc(C(=O)N4CCN(C)CC4)nn3)c(F)cc2N2C[C@@H](C)N(C)[C@@H](C)C2)c1Cl
< 0.24

---

- TESTED_SYSTEM: BRD4-BD2 (Homo sapiens, UniProt O60885)
- Construct: BRD4-BD2
- ASSAY_OVERVIEW: Selectivity panel (Table 3)
MEASURED_PROPERTY: IC50

So what IC50 did Cc1c(F)c(N)cc(C(=O)Nc2cc(-n3cc(C(=O)N4CCN(C)CC4)nn3)c(F)cc2N2C[C@@H](C)N(C)[C@@H](C)C2)c1Cl get with BRD4-BD2 (Homo sapiens, UniProt O60885)?
> 1 µM
